Target Or System: BRD4 (BDI_K57-E168) (Homo sapiens)
Construct: BD1: amino acids K57-E168
Protocol: TR-FRET bromodomain binding assay, BRD4 first bromodomain
Run Parameters: His-tagged BD1, Alexa647-labeled probe 100 nM; Ki calculated from IC50
Description: A time-resolved fluorescence resonance energy transfer (TR-FRET) assay was used to determine the affinities of compounds of the Examples listed in Table 1 for each bromodomain of BRD4. […] Compound dilution series were prepared in DMSO via a 3-fold serial dilution from 2.5 mM to 42 nM. […] After a one-hour incubation at room temperature, TR-FRET ratios were determined using an Envision multilabel plate reader (Ex 340, Em […]). […]
pKi: −log10 of the molar value.
# pKi >= 6 gives fulfilled, anything below gives not fulfilled

Molecule: Cc1[nH]c(-c2ccc(-c3ccsc3)cc2)cc1C(N)=O
Category: not fulfilled
//
Molecule: Cc1[nH]c(-c2cc(CC(=O)O)ccc2OCc2ccccc2)cc1C(N)=O
Category: fulfilled
//
Molecule: Cc1[nH]c(-c2ccccc2NCc2cc(Br)cs2)cc1C(N)=O
Category: not fulfilled
//
Molecule: Cc1[nH]c(-c2ccccc2NC2CCc3ccccc3C2)cc1C(N)=O (stereo not drawn)
Category: fulfilled
//
Molecule: Cc1[nH]c(-c2ccccc2Oc2ccc3cc[nH]c3c2)cc1C(N)=O
Category: fulfilled
//
Molecule: Cc1[nH]c(-c2ccccc2Oc2cccc3ccccc23)cc1C(N)=O
Category: fulfilled
//
Molecule: Cc1[nH]c(-c2ccc([N+](=O)[O-])cc2)cc1C(N)=O
Category: not fulfilled
//
Molecule: Cc1[nH]c(-c2cccc(-c3ccc4c(ccn4C)c3)c2)cc1C(N)=O
Category: not fulfilled
//
Molecule: Cc1noc(C)c1-c1ccc(-c2cc(C(=O)NO)c(C)[nH]2)cc1
Category: not fulfilled

---

Target Or System: BRD4 (BDI_K57-E168) (Homo sapiens, UniProt O60885)
Construct: BD1: amino acids K57-E168
Protocol: TR-FRET bromodomain binding assay, BRD4 first bromodomain
Run Parameters: His-tagged BD1, Alexa647-labeled probe 100 nM; Ki calculated from IC50
Use Ki to assign classes; range list: lo (below 400 nM), med (400 nM to below 3000 nM), hi (3000 nM or more)

Compound: Cc1[nH]c(-c2ccccc2Oc2ccc(Cl)cc2F)cc1C(N)=O
Category: lo
//
Compound: Cc1[nH]c(-c2ccc(-c3cccc(C(=O)N(C)C)c3)cc2)cc1C(N)=O
Category: med
//
Compound: Cc1[nH]c(-c2ccccc2Oc2ccc(F)cc2)cc1C(N)=O
Category: lo
//
Compound: Cc1[nH]c(-c2ccccc2NCc2ccccc2)cc1C(N)=O
Category: med
//
Compound: Cc1[nH]c(-c2ccccc2NC(=O)Cc2ccccc2)cc1C(N)=O
Category: hi
//
Compound: COC(=O)CNC(=O)c1cc(-c2ccc(-c3c(C)noc3C)cc2)[nH]c1C
Category: hi
//
Compound: Cc1[nH]c(-c2ccccc2Oc2ccc(S(C)(=O)=O)cc2)cc1C(N)=O
Category: hi
//
Compound: Cc1[nH]c(-c2ccccc2NCc2ccc(N(C)C)cc2)cc1C(N)=O
Category: hi
//
Compound: Cc1[nH]c(-c2ccccc2NCc2cccc(NC(=O)OC(C)(C)C)c2)cc1C(N)=O
Category: hi
//
Compound: COc1cc(-c2cc(C(N)=O)c(C)[nH]2)cc(OC)c1OC
Category: med
//
Compound: Cc1[nH]c(-c2ccccc2NC2CCCCC2F)cc1C(N)=O (stereo not shown)
Category: lo
//
Compound: Cc1[nH]c(-c2ccccc2NC2Cc3ccccc3C2)cc1C(N)=O
Category: med
//
Compound: Cc1[nH]c(-c2ccc(-c3cccc(O)c3)cc2)cc1C(N)=O
Category: hi
//
Compound: Cc1[nH]c(-c2ccccc2NCCC2CCN(C(=O)OC(C)(C)C)CC2)cc1C(N)=O
Category: lo
//
Compound: Cc1[nH]c(-c2ccccc2NC2CCNC2)cc1C(N)=O (stereo not shown)
Category: med
//
Compound: Cc1[nH]c(-c2ccccc2-n2cnc3cc(O)ccc32)cc1C(N)=O
Category: lo
//
Compound: Cc1[nH]c(-c2ccccc2NC2CCOC2)cc1C(N)=O (stereo not shown)
Category: lo

---

Target Or System: BRD4 (BDI_K57-E168) (Homo sapiens, UniProt O60885)
Construct: BD1: amino acids K57-E168
Protocol: TR-FRET bromodomain binding assay, BRD4 first bromodomain
Run Parameters: His-tagged BD1, Alexa647-labeled probe 100 nM; Ki calculated from IC50
Protocol: A time-resolved fluorescence resonance energy transfer (TR-FRET) assay was used to determine the affinities of compounds of the Examples listed in Table 1 for each bromodomain of BRD4. […] Compound dilution series were prepared in DMSO via a 3-fold serial dilution from 2.5 mM to 42 nM. […] After a one-hour incubation at room temperature, TR-FRET ratios were determined using an Envision multilabel plate reader (Ex 340, Em […]). […]
pKi: −log10 of the molar value.
Decision: pKi compared against 6; not below it gives 1, below it gives -1.

Compound: Cc1[nH]c(-c2ccc(-c3cnn(Cc4ccccc4)c3)cc2)cc1C(N)=O
Category: -1

Compound: CC(=O)c1ccccc1-c1cccc(-c2cc(C(N)=O)c(C)[nH]2)c1
Category: -1

Compound: COC(=O)CCc1ccccc1Oc1ccccc1-c1cc(C(N)=O)c(C)[nH]1
Category: 1

Compound: Cc1[nH]c(-c2ccccc2NCC2CCNC2)cc1C(N)=O (centres unmarked)
Category: 1

Compound: Cc1[nH]c(-c2ccc(-c3ccncc3)cc2)cc1C(N)=O
Category: -1

Compound: Cc1[nH]c(-c2ccccc2NCC2CCOC2)cc1C(N)=O (single isomer, unassigned) [Example 18]
Category: 1

Compound: Cc1[nH]c(-c2ccccc2Oc2ccc3[nH]ccc3c2)cc1C(N)=O
Category: 1

Compound: Cc1[nH]c(-c2ccccc2NC2C3CC4CC(C3)CC2C4)cc1C(N)=O (centres unmarked)
Category: 1

Compound: Cc1[nH]c(-c2ccccc2Oc2ccc(C#N)cc2)cc1C(N)=O
Category: -1

Compound: Cc1[nH]c(-c2cccc(NS(C)(=O)=O)c2)cc1C(N)=O
Category: -1

Compound: Cc1[nH]c(-c2ccccc2Oc2ccc(Cl)cc2)cc1C(N)=O
Category: 1

Compound: Cc1[nH]c(-c2ccccc2NCC2CCCC2)cc1C(N)=O
Category: 1

---

Target Or System: BRD4 (BDII_E352-M457) (Homo sapiens, UniProt O60885)
Protocol: TR-FRET bromodomain binding assay, BRD4 second bromodomain
Run Parameters: His-tagged BD2, Alexa647-labeled probe 30 nM; Ki calculated from IC50
Form field: Ki (one value per entry).

Molecule: Cc1[nH]c(-c2cccc3cc[nH]c23)cc1C(N)=O [Example 164]
Ki: 2.03 µM
//
Molecule: CC(=O)Nc1ccc(-c2cc(C(N)=O)c(C)[nH]2)cc1 [Example 10]
Ki: 5.57 µM
//
Molecule: Cc1[nH]c(-c2c(F)cccc2F)cc1C(N)=O [Example 147]
Ki: 12.2 µM
//
Molecule: CC(=O)Nc1ccccc1-c1cc(C(N)=O)c(C)[nH]1 [Example 2]
Ki: 21.5 µM
//
Molecule: Cc1[nH]c(-c2ccccc2Oc2ccc(-n3ccnc3)cc2)cc1C(N)=O [Example 135]
Ki: 1.86 µM
//
Molecule: Cc1[nH]c(-c2ccccc2Oc2cccnc2)cc1C(N)=O [Example 126]
Ki: 1.14 µM
//
Molecule: Cc1noc(C)c1-c1ccc(-c2cc(C(=O)NO)c(C)[nH]2)cc1 [Example 95]
Ki: 5.62 µM
//
Molecule: Cc1[nH]c(-c2ccccc2Oc2cccc3ncccc23)cc1C(N)=O [Example 128]
Ki: 0.318 µM
//
Molecule: Cc1[nH]c(-c2ccccc2NCC2CCNCC2)cc1C(N)=O [Example 43]
Ki: 11 µM
//
Molecule: Cc1[nH]c(-c2ccc(-c3ccc(C(=O)N(C)C)cc3)cc2)cc1C(N)=O [Example 108]
Ki: 4.49 µM
//
Molecule: Cc1[nH]c(-c2ccccc2NCc2cc(C(F)(F)F)cc(C(F)(F)F)c2)cc1C(N)=O [Example 21]
Ki: 21.5 µM
//
Molecule: Cc1cccc(CNc2ccccc2-c2cc(C(N)=O)c(C)[nH]2)c1 [Example 25]
Ki: 2.16 µM
//
Molecule: Cc1noc(C)c1-c1ccc(-c2cc(C(N)=O)c(C)[nH]2)cc1 [Example 92]
Ki: 2.43 µM
//
Molecule: Cc1[nH]c(-c2ccc(NS(C)(=O)=O)cc2)cc1C(N)=O [Example 9]
Ki: 3.14 µM
//
Molecule: Cc1[nH]c(-c2cccc(-c3ccc4c(ccn4C)c3)c2)cc1C(N)=O [Example 156]
Ki: 21.9 µM
//
Molecule: Cc1[nH]c(-c2ccccc2NCc2ccc(O)cc2)cc1C(N)=O [Example 54]
Ki: 3.88 µM
//
Molecule: Cc1[nH]c(-c2ccccc2-n2cnc3ccc(O)cc32)cc1C(N)=O [Example 145]
Ki: 3.92 µM
//
Molecule: Cc1[nH]c(-c2ccccc2NCCC2CCNCC2)cc1C(N)=O [Example 47]
Ki: 7.83 µM
//
Molecule: Cc1[nH]c(-c2ccccc2NCc2cccs2)cc1C(N)=O [Example 38]
Ki: 1.14 µM
//
Molecule: Cc1[nH]c(-c2ccccc2NCc2c(F)cccc2F)cc1C(N)=O [Example 22]
Ki: 3.66 µM
//
Molecule: Cc1[nH]c(-c2ccccc2Br)cc1C(N)=O [Example 115]
Ki: 7.12 µM
//
Molecule: Cc1[nH]c(-c2ccccc2Oc2ccc3ccccc3c2)cc1C(N)=O [Example 139]
Ki: 1.19 µM
//
Molecule: Cc1[nH]c(-c2ccccc2Oc2ccc(N)cc2)cc1C(N)=O [Example 119]
Ki: 1.1 µM
